Tested on: CHO-K1 (Chinese hamster ovary)
assay method text: MTT cytotoxicity assay
Assay type: cell-based
condition description: Cricetulus griseus, CHO-K1 cells, 24 h exposure, mean of 2–3 independent measurements, read-out: IC50 and SEM
readout kind: pIC50
Answers are plain numbers, as −log10 of the molar value.

- molecule: "O=C(NCCc1c[nH]c2ccccc12)c1ccc(Cl)c(Cl)c1"
  target of assay: "CHO-K1 (Chinese hamster ovary)"
  readout kind: "pIC50"
  val: 3.05

Lab note: each molecule below needs its pIC50 filled in.
1. Cc1ccc(C(=O)NCCc2c[nH]c3ccccc23)cc1
2. O=C(NCCc1c[nH]c2ccccc12)c1ccc2ccccc2c1 [Compound 19, N-(2-(1H-Indol-3-yl)ethyl)-2-naphthamide]
3. O=C(NCCc1c[nH]c2ccccc12)C1CCCCC1
4. O=C(NCCc1c[nH]c2ccccc12)C1CCc2ccccc2C1 (stereo not drawn)
5. O=C(NCCc1c[nH]c2ccccc12)c1ccccc1 [Compound 14, N-(2-(1H-Indol-3-yl)ethyl)benzamide]

Key:
3.71
3.81
3.68
3.89
3.53
